assay-notes: Folding and unfolding kinetics (Chevron plot, stopped-flow CD, GuHCl)
Assay type: physicochemical
experimental-parameters: in reference to WT*; positive value = decrease in folding activation barrier
observation-type: ΔΔG‡-D

Answered examples (2):
molecule: SYM5/ΔΔ: SYM5 FGF-1 mutant plus both Δ104-106 and Δ120-122 deletion mutations (protein, UniProt P05230 16-155, looked up, variant L44F L73V V109L L111I C117V A103G del104-106 R119G del120-122) Fibroblast growth factor 1: FNLPPGNYKKPKLLYCSNGGHFLRILPDGTVDGTRDRSDQHIQFQLSAESVGEVYIKSTETGQYLAMDTDGLVYGSQTPNEECLFLERLEENHYNTYISKKHGWFLGIKKNGSVKGTHYGQKAILFLPLPVSSD
recorded-measurement: 1.48 kcal/mol

molecule: SYM6/Δ104-106: SYM6 FGF-1 mutant plus Ala103→Gly/ΔGlu104/ΔLys105/ΔAsn106 (protein, UniProt P05230 16-155, looked up, variant A103G E104* K105* N106*, SYM6 background mutations, SYM6 FGF-1 mutant plus Ala103→Gly/ΔGlu104/ΔLys105/ΔAsn106) Fibroblast growth factor 1: FNLPPGNYKKPKLLYCSNGGHFLRILPDGTVDGTRDRSDQHIQLQLSAESVGEVYIKSTETGQYLAMDTDGLLYGSQTPNEECLFLERLEENHYNTYISKKHGWFVGLKKNGSCKRGPRTHYGQKAILFLPLPVSSD
recorded-measurement: 1.31 kcal/mol

// ΔΔG‡-D lookup, key: SYM5/Δ120-122: SYM5 FGF-1 mutant plus Arg119→Gly/ΔGly120/ΔPro121/ΔArg122, SEQ ID NO: 2 (protein, Human FGF-1 mutant SYM5D120-122) FNLPPGNYKKPKLLYCSNGGHFLRILPDGTVDGTRDRSDQHIQFQLSAESVGEVYIKSTETGQYLAMDTDGLVYGSQTPNEECLFLERLEENHYNTYISKKHAEKNWFLGIKKNGSVKGTHYGQKAILFLPLPVSSD
0.468 kcal/mol
